Where do the numbers come from? From paper PMC11339278.

Target: SNX17 full length (residue 1-470) with an intramolecular decaHis tag (human) (UniProt Q15036)
Assay: ITC; APP or LRP1 peptide at 250 μM injected into 20 μM SNX17 FL or SNX17ΔC; 13 x 3.22 μL; 10 °C; 500 mM NaCl, 100 mM Tris pH 8.0, 5% glycerol; single site binding model
Measured property: pKd
# log scale: pKd equals minus log10 of the concentration in mol/L

INSERT INTO assay_data (binder, meas_value) VALUES
  ('NGYENPTYKFFEQM [APP cargo recognition peptide (755-768)]', 4.80);

# context switch: different binder, same pKd
Query (binder): VEIGNPTYKMYEGG [LRP1 cargo recognition peptide (4466-4479)] ; field requested: pKd
4.84
